Assay Remarks: Lipophilic-hydrophilic balance, Rm of the compound by partition chromatography
Assay type: physicochemical
Endpoint Name: Rm

1) CC[n+]1cccc(NC(=O)c2ccc(NC(=O)c3ccc(C(=O)Nc4ccc[n+](CC)c4)cc3)cc2)c1.Cc1ccc(S(=O)(=O)[O-])cc1.Cc1ccc(S(=O)(=O)[O-])cc1 ... 0.3
2) C[n+]1ccc(Nc2ccc(C(=O)Nc3ccc(Nc4cc[n+](C)c5cc(N)ccc45)cc3)c(N)c2)cc1.Cc1ccc(S(=O)(=O)[O-])cc1.Cc1ccc(S(=O)(=O)[O-])cc1 ... -0.12
3) C[n+]1ccc(Nc2ccc(NC(=O)c3ccc(Nc4cc[n+](C)c5ccc(N)cc45)cc3)cc2)cc1.[Br-].[Br-] ... 0.07
4) CC[n+]1ccc(Nc2ccc(NC(=O)/C=C/c3ccc(C(=O)Nc4ccc(Nc5cc[n+](CC)cc5)c(N)c4)cc3)cc2N)cc1.[Br-].[Br-] ... 0.35
5) C[n+]1cccc(NC(=O)c2ccc(NC(=O)C34CCC(C(=O)Nc5ccc(C(=O)Nc6ccc[n+](C)c6)cc5)(CC3)CC4)cc2)c1.Cc1ccc(S(=O)(=O)[O-])cc1.Cc1ccc(S(=O)(=O)[O-])cc1 ... 0.31

Now examine the next entry.
## Task Value lookup for Rm; key = C[n+]1cccc(NC(=O)c2ccc(NC(=O)c3ccc(C(=O)Nc4ccc[n+](C)c4)cc3)cc2)c1.Cc1ccc(S(=O)(=O)[O-])cc1.Cc1ccc(S(=O)(=O)[O-])cc1
## Result -0.11

---

Catalogue of C50 values
Assay Remarks: Displacement of ethidium from poly[d(A-T)]-poly[d(A-T)] DNA by fluorimetric method
Numeric answer only, unit µM assumed.

Solved cases below.
1) Cc1ccc(S(=O)(=O)[O-])cc1.Cc1ccc(S(=O)(=O)[O-])cc1.Cc1cccc2c(Nc3ccc(C(=O)Nc4ccc(Nc5cc[n+](C)cc5)cc4)cc3)cc[n+](C)c12 ... 0.31
2) CCC[n+]1ccc(Nc2ccc(NC(=O)c3ccc(Nc4cc[n+](CCC)c5ccc(N)cc45)cc3)cc2)cc1.[Br-].[Br-] ... 0.1

Now examine the next entry.
## Task Value lookup for C50; key = CCCC[n+]1ccc(Nc2ccc(NC(=O)c3ccc(Nc4cc[n+](CCCC)c5ccccc45)cc3)cc2)cc1.[Br-].[Br-]
## Result 0.19

---

System: L1210
Assay Remarks: Antitumor activity against mouse L1210 cells […] in ip dosed C3H X DBA2 F1 hybrid mouse on day 0 and dosed once daily on days 1 to 5 assessed as increase in life span relative to control
Format: functional
Endpoint Name: D40 (mg/kg)
Numeric answer only, unit mg/kg assumed.

Solved cases below.
1) C[n+]1ccc(Nc2ccc(NC(=O)c3ccc(Nc4cc[n+](C)c5c(Cl)cccc45)cc3)cc2)cc1.Cc1ccc(S(=O)(=O)[O-])cc1.Cc1ccc(S(=O)(=O)[O-])cc1 ... 50
2) C[n+]1ccc(Nc2ccc(NC(=O)c3ccc(Nc4cc[n+](C)c5ccccc45)cc3)cc2)cc1.[Br-].[Br-] ... 2

Now examine the next entry.
## Task Value lookup for D40; key = CCCCC[n+]1cccc2cc(NC(=O)COc3ccc(C(=O)Nc4ccc5c(ccc[n+]5CCCCC)c4)cc3)ccc21.Cc1ccc(S(=O)(=O)[O-])cc1.Cc1ccc(S(=O)(=O)[O-])cc1
## Result 100
